biological target: c-Kit (Homo sapiens, UniProt P10721); assay: c-Kit tyrosine kinase inhibition, Caliper screening (fluorescent substrate phosphorylation, electrophoretic separation); type: biochemical; conditions: concentration 1.0E−10 (unit not given)
Sequence (P10721 26-976): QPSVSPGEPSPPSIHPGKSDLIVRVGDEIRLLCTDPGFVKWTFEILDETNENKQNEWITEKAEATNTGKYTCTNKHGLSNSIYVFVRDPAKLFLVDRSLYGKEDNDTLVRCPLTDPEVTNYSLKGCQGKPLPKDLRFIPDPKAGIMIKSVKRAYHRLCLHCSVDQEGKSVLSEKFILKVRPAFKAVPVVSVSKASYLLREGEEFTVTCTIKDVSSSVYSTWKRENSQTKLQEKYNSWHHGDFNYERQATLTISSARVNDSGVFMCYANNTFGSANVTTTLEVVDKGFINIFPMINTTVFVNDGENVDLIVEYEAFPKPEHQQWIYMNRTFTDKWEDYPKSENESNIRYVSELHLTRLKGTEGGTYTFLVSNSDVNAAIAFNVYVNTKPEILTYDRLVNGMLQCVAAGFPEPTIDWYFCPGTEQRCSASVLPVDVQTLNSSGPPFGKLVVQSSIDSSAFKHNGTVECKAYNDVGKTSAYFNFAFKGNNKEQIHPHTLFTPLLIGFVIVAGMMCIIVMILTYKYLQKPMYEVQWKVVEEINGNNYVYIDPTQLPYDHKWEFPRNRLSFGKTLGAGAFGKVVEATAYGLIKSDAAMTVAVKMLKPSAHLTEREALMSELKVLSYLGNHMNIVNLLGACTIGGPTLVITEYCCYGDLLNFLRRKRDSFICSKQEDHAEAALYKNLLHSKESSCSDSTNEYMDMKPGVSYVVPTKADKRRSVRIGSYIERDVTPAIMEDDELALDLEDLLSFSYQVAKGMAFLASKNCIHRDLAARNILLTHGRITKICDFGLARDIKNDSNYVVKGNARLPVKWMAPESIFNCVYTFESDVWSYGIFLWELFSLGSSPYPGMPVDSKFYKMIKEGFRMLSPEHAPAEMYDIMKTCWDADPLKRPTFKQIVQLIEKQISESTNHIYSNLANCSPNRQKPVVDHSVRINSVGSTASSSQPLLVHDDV
Observable: c-Kit AVG % Activity at Specific Concentration (%)

Compound	Tested Target	Units Of Measure	Measured
COCCOCCOCCNC(=O)c1c(C)[nH]c(/C=C2\C(=O)Nc3ccc(F)cc32)c1C [mPEG3-semaxanib]	c-Kit (Homo sapiens, UniProt P10721)	%	100
COCCOCCOCCOCCOCCOCCNC(=O)c1c(C)[nH]c(/C=C2\C(=O)Nc3ccc(F)cc32)c1C [mPEG6-semaxanib]	c-Kit (Homo sapiens, UniProt P10721)	%	91
COCCOCCOCCOCCOCCOCCOCCNC(=O)c1c(C)[nH]c(/C=C2\C(=O)Nc3ccc(F)cc32)c1C [mPEG7-semaxanib]	c-Kit (Homo sapiens, UniProt P10721)	%	97
COCCOCCOCCOCCOCCOCCOCCOCCNC(=O)c1c(C)[nH]c(/C=C2\C(=O)Nc3ccc(F)cc32)c1C [mPEG8-semaxanib]	c-Kit (Homo sapiens, UniProt P10721)	%	94
COCCOCCOCCOCCOCCNC(=O)c1c(C)[nH]c(/C=C2\C(=O)Nc3ccc(F)cc32)c1C [mPEG5-semaxanib]	c-Kit (Homo sapiens, UniProt P10721)	%	90
COCCOCCOCCOCCOCCOCCOCCOCCOCCNC(=O)c1c(C)[nH]c(/C=C2\C(=O)Nc3ccc(F)cc32)c1C [mPEG9-semaxanib]	c-Kit (Homo sapiens, UniProt P10721)	%	95
COCCOCCOCCOCCNC(=O)c1c(C)[nH]c(/C=C2\C(=O)Nc3ccc(F)cc32)c1C [mPEG4-semaxanib]	c-Kit (Homo sapiens, UniProt P10721)	%	97

###

biological target: RET (Homo sapiens, UniProt P07949); assay: RET kinase inhibition, Caliper screening (fluorescent substrate phosphorylation, electrophoretic separation); conditions: concentration 3.0E−07 (unit not given)
Sequence (P07949 29-1114, species assumed): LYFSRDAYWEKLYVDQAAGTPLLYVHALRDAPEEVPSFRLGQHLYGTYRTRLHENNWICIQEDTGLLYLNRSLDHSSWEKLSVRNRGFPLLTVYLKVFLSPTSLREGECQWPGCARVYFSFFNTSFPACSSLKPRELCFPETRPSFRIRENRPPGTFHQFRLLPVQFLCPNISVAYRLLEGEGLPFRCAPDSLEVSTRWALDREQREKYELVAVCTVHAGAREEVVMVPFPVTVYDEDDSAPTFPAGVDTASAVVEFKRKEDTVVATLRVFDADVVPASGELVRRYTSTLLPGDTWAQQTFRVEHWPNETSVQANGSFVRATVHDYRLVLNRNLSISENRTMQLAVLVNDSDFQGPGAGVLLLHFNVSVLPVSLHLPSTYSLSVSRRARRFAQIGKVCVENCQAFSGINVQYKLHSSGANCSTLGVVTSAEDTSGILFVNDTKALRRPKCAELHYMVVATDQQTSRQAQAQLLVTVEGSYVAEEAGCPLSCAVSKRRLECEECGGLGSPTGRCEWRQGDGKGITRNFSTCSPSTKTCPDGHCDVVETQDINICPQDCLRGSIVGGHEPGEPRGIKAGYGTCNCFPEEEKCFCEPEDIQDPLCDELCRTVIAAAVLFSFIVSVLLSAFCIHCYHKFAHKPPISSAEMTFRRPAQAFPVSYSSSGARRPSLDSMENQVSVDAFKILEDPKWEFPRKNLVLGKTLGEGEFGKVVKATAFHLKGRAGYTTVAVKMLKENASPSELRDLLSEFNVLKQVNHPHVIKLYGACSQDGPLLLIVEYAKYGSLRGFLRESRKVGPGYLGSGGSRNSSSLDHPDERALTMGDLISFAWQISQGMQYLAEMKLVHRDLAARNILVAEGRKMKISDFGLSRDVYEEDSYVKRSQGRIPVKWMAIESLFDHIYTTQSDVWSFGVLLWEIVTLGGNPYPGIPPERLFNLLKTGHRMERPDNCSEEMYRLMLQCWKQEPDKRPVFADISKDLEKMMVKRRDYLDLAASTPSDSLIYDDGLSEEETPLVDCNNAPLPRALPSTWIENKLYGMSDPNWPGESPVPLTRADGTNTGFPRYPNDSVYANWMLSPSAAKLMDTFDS
Observable: RET AVG % Activity at Specific Concentration (%)

These solved cases illustrate the format of a correct answer.
1) COCCOCCOCCOCCOCCOCCOCCOCCOCCNC(=O)c1c(C)[nH]c(/C=C2\C(=O)Nc3ccc(F)cc32)c1C 74
2) COCCOCCOCCOCCNC(=O)c1c(C)[nH]c(/C=C2\C(=O)Nc3ccc(F)cc32)c1C 52
3) COCCOCCOCCOCCOCCNC(=O)c1c(C)[nH]c(/C=C2\C(=O)Nc3ccc(F)cc32)c1C 59
4) COCCOCCOCCOCCOCCOCCOCCOCCNC(=O)c1c(C)[nH]c(/C=C2\C(=O)Nc3ccc(F)cc32)c1C 75

A. COCCOCCOCCOCCOCCOCCOCCNC(=O)c1c(C)[nH]c(/C=C2\C(=O)Nc3ccc(F)cc32)c1C
B. COCCOCCOCCNC(=O)c1c(C)[nH]c(/C=C2\C(=O)Nc3ccc(F)cc32)c1C
QUERY: Given A and B , report the one with the higher recorded RET AVG % Activity at Specific Concentration. Mark your answer with the label of the selected entry.
RESULT: A
(A: 68%, B: 38%)

###

biological target: RET (Homo sapiens, UniProt P07949); assay: RET kinase inhibition, Caliper screening (fluorescent substrate phosphorylation, electrophoretic separation); conditions: concentration 1.0E−07 (unit not given)
Observable: RET AVG % Activity at Specific Concentration (%)

1) COCCOCCOCCOCCNC(=O)c1c(C)[nH]c(/C=C2\C(=O)Nc3ccc(F)cc32)c1C 78
2) COCCOCCOCCOCCOCCOCCOCCOCCOCCNC(=O)c1c(C)[nH]c(/C=C2\C(=O)Nc3ccc(F)cc32)c1C 90
3) COCCOCCOCCNC(=O)c1c(C)[nH]c(/C=C2\C(=O)Nc3ccc(F)cc32)c1C 68
4) COCCOCCOCCOCCOCCNC(=O)c1c(C)[nH]c(/C=C2\C(=O)Nc3ccc(F)cc32)c1C 84
5) COCCOCCOCCOCCOCCOCCOCCOCCNC(=O)c1c(C)[nH]c(/C=C2\C(=O)Nc3ccc(F)cc32)c1C 92
6) COCCOCCOCCOCCOCCOCCOCCNC(=O)c1c(C)[nH]c(/C=C2\C(=O)Nc3ccc(F)cc32)c1C 85
